# SYSTEM: Short transient receptor potential channel 4 (Mus musculus)
# TEST_METHOD_NOTES: blockers of DAMGO-evoked TRPC4 calcium flux – cell-based, second round, Fluo4, HEK293 TRPC4beta/mu-opioid, 1 µM, confirmation (AID 2637)
# MEASUREMENT_SETUP: at 1 µM
Activity calls are given as the source filed them.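 How the source made its calls: active means calcium signal ratio cut to more than 3 SD under the fully stimulated control mean yet still positive, in both repeats and the primary screen; inactive means the rest.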
Labels: 1.0 for active, 0.0 for inactive

MOLECULE | DISCRETE_LABEL
c1ccc(Cn2nnnc2C(c2cccnc2)N2CCN(C3CCCCC3)CC2)cc1 (centres undefined) | 0.0
COc1ccc(CCNC(=O)Cn2cnc3c(cnn3C(C)(C)C)c2=O)cc1OC | 0.0
Cc1cc(NCc2ccccc2)nc(N2CCOCC2)n1 | 1.0
CCc1nc2ccccc2n1Cc1ccccc1OC | 1.0

====

# SYSTEM: Short transient receptor potential channel 6 (Mus musculus)
# TEST_METHOD_NOTES: positive modulators of mouse TRPC6 channel – HEK293 cells, membrane potential dye, duplicate, selectivity assay for TRPC4 potentiator project, confirmation (AID 434952)
# MEASUREMENT_SETUP: HEK293 TRPC6, membrane potential dye fluorescence, at 10 µM, maximal acetylcholine added after compound; active compounds read high
The source made the active and inactive calls.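 The calls were made as follows: active = compound raising the membrane signal above positive-control mean plus 3 SD in both repeats, and a primary screen hit; inactive = the rest.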
OBSERVABLE: potentiation, percent of control

COMPOUND | RECORDED_VALUE
CC1CCN(CCc2nc3cc(NS(=O)(=O)c4ccc(F)cc4)ccc3n2C)CC1 | inactive
CN(C)CC(CCC(CN(C)C)C(O)(c1ccccc1)c1ccccc1)C(O)(c1ccccc1)c1ccccc1 (stereo not given) | inactive
CC1(C)CC2CC(C)(CN2CC(O)COc2ccccc2)C1 (stereo not given) | inactive
CCn1c(=O)c2cc(C(=O)N(C)c3cc(C)ccc3OC)sc2c2ccccc21 | inactive
CCOc1ccc(N=CNc2ccc(OCC)cc2)cc1 | inactive
COc1ccc(O)c(C(=O)c2cnc3c(c2)c(=O)[nH]c(=O)n3C)c1 | inactive
O=C(Nc1ccnn1C1CCN(CCCC2CCCC2)CC1)c1ccccc1Cl | inactive
Cc1ccc(Oc2ccccc2NC(=O)CSCC(=O)Nc2cc(C)on2)cc1 | inactive
Cc1sc2ncnc(SCC(=O)N(C)C3CCS(=O)(=O)C3)c2c1C (stereo not given) | inactive
O=C(O)C1C2C=CC(C2)C1C(=O)NC1CCN(Cc2ccccc2)CC1 (stereo not given) | inactive
O=c1c(Cc2ccccc2)c(O)ccn1CCc1cnc[nH]1 | inactive
CCN1CCCC1CNC(=O)c1cc2c(OC)cccc2[nH]1 (stereo not given) | inactive
CC(=O)C1=C(O)C(=O)N(Cc2ccco2)C1c1ccc2c(c1)OCO2 (stereo not given) | inactive
CCN(CC)CCN(C(=O)c1ccccc1OC)c1nc2ccc(F)cc2s1 | inactive
O=C(N/N=C/c1cc2c(cc1Br)OCO2)c1cc2ccccc2o1 | inactive
CCCCn1c(NCc2ccc(N(C)C)cc2)nc2ccccc21 | inactive
COCCSc1ccccc1C(=O)N1CCC(Cc2ccccc2)CC1 | inactive
O=C(NCCc1ccccc1)c1cnc2ccccc2n1 | inactive
COc1ccccc1N1CCN(CC(C)N(C(=O)C2CCCCC2)c2ccccn2)CC1 (stereo not given) | inactive
CCn1c2ccccc2c2cc(NC(=O)CN3CCCC3)ccc21 | inactive
CCOCCCn1cnc2c(c1=O)c1nc3ccccc3nc1n2-c1ccc(C)cc1 | inactive
CCn1c(CN2CCN(C(c3ccccc3)c3ccccc3)CC2)nc2c1c(=O)n(C)c(=O)n2C | inactive
O=C(NC(=S)NNC(=O)c1ccccc1[N+](=O)[O-])c1ccc(Br)cc1 | inactive
COc1cccc2cc(C(N)=O)/c(=N\NC(=O)c3ccccc3)oc12 | inactive
Cc1n[nH]c(C)c1CCCCOc1ccccc1 | inactive
Cc1[nH]c2ccccc2c1C(=O)CN1C(=O)NC(C)(c2ccc(Cl)cc2Cl)C1=O (stereo not given) | inactive
Clc1cc(Cl)cc(C2=NC(Cc3ccccc3)CO2)c1 (stereo not given) | inactive
CC1=NN(c2ccccc2)C(=O)/C1=C/c1c(O)n(-c2ccc(F)c(Cl)c2)[nH]c1=O | inactive
C=CCNC(=S)N1CCN(CCN=Cc2c(C)[nH]n(-c3ccc([N+](=O)[O-])cc3)c2=O)CC1 | inactive
CCN(CC)CCCNC(=S)N1CCN(c2nc3ccccc3n2CC)CC1 | inactive
CN(C)C(CNC(=O)CCc1nc2ccccc2s1)c1ccccc1 (stereo not given) | inactive
N/C(Cc1cccc2ccccc12)=N\OC(=O)c1cccs1 | inactive
CN(C)CCNc1ccc(Cl)cc1[N+](=O)[O-] | inactive
COC(=O)c1ccc(COc2ccc(/C=N/Nc3nc(C)cc(=O)[nH]3)cc2)cc1 | inactive
CCCC(=O)N/C(N)=N/c1nc(C)c2ccccc2n1 | inactive

====

# TEST_METHOD_NOTES: nonspecific calcium rise without TRPC4 – cell-based, HEK293 mu-opioid receptor line, counter-screen for TRPC4 activator project, confirmation (AID 449723);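 further: counter screen cells carry the mu-opioid receptor alone and lack TRPC4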
# MEASUREMENT_SETUP: HEK293 mu-opioid cells, Fluo-4 calcium fluorescence, at 10 µM
Activity calls are given as the source filed them.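 How the source made its calls: active means hit in primary screen, with calcium signal over 5 SD above buffer well mean in both duplicates; inactive means the rest.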
Labels: active, inactive

COMPOUND | DISCRETE_LABEL
OCC(Cc1ccccc1)NCc1ccccc1C(F)(F)F (stereo not drawn) | inactive
CCCn1c(NC(=O)c2cccc(S(=O)(=O)N3CCCC3)c2)nc2ccccc21 | inactive
O=C(CSCc1cccc(Cl)c1)N1CCN(Cc2ccc3c(c2)OCO3)CC1 | inactive
C=CCOc1ccc(CN(C)Cc2nc3cc(C(F)(F)F)ccc3c(=O)[nH]2)cc1 | inactive
Cc1ccc(Cl)cc1N1CCN(C(=O)c2cccc3c(=O)c(C)c(-c4ccccc4)oc23)CC1 | inactive
CN(C)c1ccc(/C=C/C(=O)c2c(O)c3ccccc3oc2=O)cc1 | active
COc1ccc(F)cc1C(=O)C1CCCN(Cc2cccn2-c2ccccn2)C1 (stereo not drawn) | inactive
COc1cc(CNC2CCCC2)cc(Cl)c1OCc1ccc(F)cc1 | inactive
CCCn1ncc(CN2CCC(n3nccc3NC(=O)CCc3ccccc3)CC2)c1C | inactive
CC(C)Oc1cccc(C(=O)NC(=S)Nc2ccc(N3CCN(C)CC3)cc2)c1 | inactive
COc1ccc(C(CNC(=O)/C=C/c2c(Cl)nc3ccccn23)N(C)C)cc1 (stereo not drawn) | inactive
O=C(Cc1ccccc1)Nc1ccccc1Sc1ccccc1 | inactive
CCn1c(/C=C/Nc2ccccc2)[n+](CC)c2ccc(Cl)cc21 | inactive
CCN(CC)c1ccc(CNc2nc3ccccc3n2CCN2CCCCC2)cc1 | inactive
O=C(NCCCN1CCCC1=O)c1ccc(CNS(=O)(=O)c2ccc(F)cc2)cc1 | inactive
CCCCN(CC)CCCNC(=O)c1cc2cc3ccc(C)cc3nc2o1 | inactive
CC1(c2ccccc2)CC(C)(C)N(C(=O)C2CCCO2)c2ccccc21 (stereo not drawn) | inactive
O=C(Nc1ccccc1Oc1cccnc1)C1CCCN(Cc2cccc(Cl)c2)C1 (stereo not drawn) | inactive

====

# SYSTEM: Short transient receptor potential channel 4 (Mus musculus)
# TEST_METHOD_NOTES: blockers of DAMGO-evoked TRPC4 calcium flux – cell-based, second round, Fluo4, HEK293 TRPC4beta/mu-opioid, 1 µM, confirmation (AID 2637)
# MEASUREMENT_SETUP: at 1 µM
Activity calls are given as the source filed them.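 How the source made its calls: active means calcium signal ratio cut to more than 3 SD under the fully stimulated control mean yet still positive, in both repeats and the primary screen; inactive means the rest.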
Labels: active, inactive

COMPOUND | DISCRETE_LABEL
Cc1cc(C)c2nc(C)cc(N/N=C/c3ccc(O)cc3)c2c1 | inactive
CN(C)CCN1C(=O)C2C(C(=O)Nc3cc(Cl)cc(Cl)c3)C3C=CC2(O3)C1C(=O)NC1CCCCC1 (stereo not drawn) | inactive
COc1ccc(CN(C(=O)c2snc(C(N)=O)c2N)C(CC(C)C)C(=O)NC2CCCCC2)cc1 (stereo not drawn) | inactive
Cc1nn(C(=O)c2cccc([N+](=O)[O-])c2)c(C)c1Sc1ccccc1 | inactive
COc1ccccc1N1CCN(CC(C)N(C(=O)C2CCCCC2)c2ccccn2)CC1 (stereo not drawn) | active
Cc1cccc(N(C(=O)c2snc(C(N)=O)c2N)C(C(=O)NCC2CCCO2)c2ccc3ncccc3c2)c1 (stereo not drawn) | inactive
CCOC(=O)C1NN=C(C(=O)c2ccccc2)C1c1ccc(Cl)cc1 (stereo not drawn) | inactive
CN(C)CCCN(C(=O)c1ccc(S(=O)(=O)N2CCc3ccccc32)cc1)c1nc2ccc(F)cc2s1 | inactive

====

# Test system: transient receptor potential cation channel C4 (TRPC4), mouse
# TEST_METHOD_NOTES: membrane potential change in TRPC4 cells – cell-based, HEK293 TRPC4/mu-opioid, membrane potential dye, selectivity assay for TRPC6 inhibitor project, confirmation (AID 2777);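 further: integrated kinetic ratio of fluorescence range over baseline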
# MEASUREMENT_SETUP: membrane potential fluorescence, at 10 µM
The list shows a part of the results. The source made the active and inactive calls.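 Rule for the calls: active = rise or fall in signal beyond 3 SD of buffer-only wells in both replicate plates, either sign; inactive = the rest.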
Labels: y (active), n (inactive)

COMPOUND | DISCRETE_LABEL
CCCCOc1ccc(CSC(=N)N)cc1[N+](=O)[O-] | n
Cc1cc2oc3ccc(NCCC4CCCN4C)cc3c(=O)c2cc1C (stereo not drawn) | y
Oc1c(Cl)cc(Cl)c(Cl)c1Cc1c(O)c(Cl)cc(Cl)c1Cl | y
